assay: Protein binding (fraction unbound in blood and brain); conditions: brain
Give measured Bound (brain) for each item. Keep answers brief.
One number for each entry, in %.

- CN1CCN(C[C@@H]2COc3cc4ncnc(Nc5cccc(Br)c5F)c4cc3O2)CC1 [JGK068R]: 98.43
- Fc1c(Cl)cccc1Nc1ncnc2cc3c(cc12)OCCO3: 98.90

Parameters: items (list). Returns: Bound (brain) for each item.
1. C#Cc1cccc(Nc2ncnc3cc(OCCOC)c(OCCOC)cc23)c1
2. Fc1c(I)cccc1Nc1ncnc2cc3c(cc12)OCCO3
3. Fc1cccc(Nc2ncnc3cc4c(cc23)OCCO4)c1F
4. Fc1c(Br)cccc1Nc1ncnc2cc3c(cc12)O[C@@H](CN1CCNCC1)CO3 [JGK083S]
5. Fc1c(Br)cccc1Nc1ncnc2cc3c(cc12)OC(CN1CCOCC1)CO3 (racemic)
6. CN1CCN(CC2COc3cc4ncnc(Nc5cccc(Br)c5F)c4cc3O2)CC1 (racemic)

Return:
97.07
98.86
98.59
97.58
96.22
97.89

Parameters: items (list). Returns: Bound (brain) for each item.
1. CN(C)CC1COc2cc3ncnc(Nc4cccc(Br)c4F)c3cc2O1 (racemic)
2. CN1CCN(C[C@H]2COc3cc4ncnc(Nc5cccc(Br)c5F)c4cc3O2)CC1 [JGK068S]
3. C#Cc1cccc(Nc2ncnc3cc4c(cc23)OCCO4)c1
4. Fc1c(Br)cccc1Nc1ncnc2cc3c(cc12)OCCO3
5. C#Cc1cccc(Nc2ncnc3cc4c(cc23)OCCO4)c1F

Return:
[96.98, 98.14, 98.98, 98.96, 99.11]

---

test: Protein binding (fraction unbound in blood and brain); details: blood, Fu (blood), fraction unbound
Parameter Measured: fraction unbound
Answers are plain numbers.

• C#Cc1cccc(Nc2ncnc3cc4c(cc23)OCCO4)c1 = 0.0135
• Fc1cccc(Nc2ncnc3cc4c(cc23)OCCO4)c1F = 0.0144

Read the next record carefully.
Enquiry: Form field: reported fraction unbound of Fc1c(I)cccc1Nc1ncnc2cc3c(cc12)OCCO3
Return: 0.0185

Every entry's value here was drawn from patent US11377451B2.
